biological target: Human GLP-1 receptor (human, UniProt P43220 24-463); test: cell-based or functional assay
Sequence (P43220 24-463): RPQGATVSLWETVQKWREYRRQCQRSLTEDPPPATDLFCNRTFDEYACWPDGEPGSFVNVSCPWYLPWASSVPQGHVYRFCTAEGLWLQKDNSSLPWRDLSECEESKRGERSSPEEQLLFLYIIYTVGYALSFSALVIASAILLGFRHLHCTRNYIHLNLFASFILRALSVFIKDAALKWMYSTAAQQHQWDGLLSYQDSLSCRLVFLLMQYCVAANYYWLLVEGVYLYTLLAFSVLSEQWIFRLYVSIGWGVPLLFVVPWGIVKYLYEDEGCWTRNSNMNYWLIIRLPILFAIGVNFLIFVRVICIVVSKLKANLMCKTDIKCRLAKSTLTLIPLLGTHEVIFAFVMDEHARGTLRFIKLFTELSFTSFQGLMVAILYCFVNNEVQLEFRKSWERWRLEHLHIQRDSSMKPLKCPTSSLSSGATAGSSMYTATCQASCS
Where no end group is shown, it is not given here. [ ]: non-standard residue; d: D form. αMePhe(2-F) = C[C@](N)(Cc1ccccc1F)C(=O)O; Ac3c = NC1(C(=O)O)CC1; Aib = CC(C)(N)C(=O)O
REPORTED_PROPERTY: cAMP release, % activity with respect to control; test compound 10 nM (%)

# BINDER, QUANTITATIVE_RESULT
rows = [
    ("H[Aib]QGTFTSD[Bip(OMe)][Bip(2CF3)] [Seq. ID. No. 16: H-Aib-QGTFTSD-Bip(OMe)-Bip(2CF3)]", 98),
    ("HSQGTFTSD[Bip(OMe)][Bip(2CF3)] (not fully specified (C-terminus); printed as HSQGTFTSD-Bip(OMe)-Bip(2CF3)) [Seq. ID. No. 8: HSQGTFTSD-Bip(OMe)-Bip(2CF3)]", 81),
    ("HSQGTFTSD[Bip(OMe)][Bip(Pyr)] (not fully specified (C-terminus); printed as HSQGTFTSD-Bip(OMe)-Bip(Pyr)) [Seq. ID. No. 6: HSQGTFTSD-Bip(OMe)-Bip(Pyr)]", 80),
    ("HSQGTFTSD[Bip(OMe)][Bip(2Me)]-NH2 [Seq. ID. No. 5: HSQGTFTSD-Bip(OMe)-Bip(2Me)]", 78),
    ("HSQGTXTSDXX (α-Me-2F-Phe at 6; Bip(OMe) at 10; Bip(2Me) at 11) [Seq. ID. No. 21: HSQGT-(α-Me-2F-Phe)-TSD-Bip(OMe)-Bip(2Me)]", 80),
    ("HSQGTXTSDXX (α-Me-2F-Phe at 6; Bip(OMe) at 10; Bip(2CF3) at 11) [Seq. ID. No. 24: HSQGT-(α-Me-2F-Phe)-TSD-Bip(OMe)-Bip(2CF3)]", 82),
    ("H[Ac3c]QGTFTSD[Bip(OMe)][Bip(Pyr)] [Seq. ID. No. 18: H-(ACP)-QGTFTSD-Bip(OMe)-Bip(Pyr)]", 99),
    ("H[Aib]QGTFTSD[Bip(OMe)][Bip(2F)] [Seq. ID. No. 15: H-Aib-QGTFTSD-Bip(OMe)-Bip(2F)]", 97),
    ("H[Aib]QGTFTSD[Bip(OMe)][Bip(2Me)] [Seq. ID. No. 13: H-Aib-QGTFTSD-Bip(OMe)-Bip(2Me)]", 92),
    ("HSQGTXTSDXX (α-Me-2F-Phe at 6; Bip(OMe) at 10; Bip(2F) at 11) [Seq. ID. No. 23: HSQGT-(α-Me-2F-Phe)-TSD-Bip(OMe)-Bip(2F)]", 85),
    ("HXQGTXTSDXX (Aib at 2; α-Me-2F-Phe at 6; Bip(OMe) at 10; Bip(2CF3) at 11; C-terminal amide (CONH2)) [Seq. ID. No. 32: H-Aib-QGT-(α-Me-2F-Phe)-TSD-Bip(OMe)-Bip(2CF3)]", 99),
    ("HAQGT[αMePhe(2-F)]TSD[Bip(OMe)][Bip(2F)] [Seq. ID. No. 27: HAQGT-(α-Me-2F-Phe)-TSD-Bip(OMe)-Bip(2F)]", 87),
]

Reference source for all entries: patent US20130225488A1
